Reference for the values: patent US9938261B2

- Assayed target: CSF1R (Homo sapiens)
- Sequence (P07333 20-972): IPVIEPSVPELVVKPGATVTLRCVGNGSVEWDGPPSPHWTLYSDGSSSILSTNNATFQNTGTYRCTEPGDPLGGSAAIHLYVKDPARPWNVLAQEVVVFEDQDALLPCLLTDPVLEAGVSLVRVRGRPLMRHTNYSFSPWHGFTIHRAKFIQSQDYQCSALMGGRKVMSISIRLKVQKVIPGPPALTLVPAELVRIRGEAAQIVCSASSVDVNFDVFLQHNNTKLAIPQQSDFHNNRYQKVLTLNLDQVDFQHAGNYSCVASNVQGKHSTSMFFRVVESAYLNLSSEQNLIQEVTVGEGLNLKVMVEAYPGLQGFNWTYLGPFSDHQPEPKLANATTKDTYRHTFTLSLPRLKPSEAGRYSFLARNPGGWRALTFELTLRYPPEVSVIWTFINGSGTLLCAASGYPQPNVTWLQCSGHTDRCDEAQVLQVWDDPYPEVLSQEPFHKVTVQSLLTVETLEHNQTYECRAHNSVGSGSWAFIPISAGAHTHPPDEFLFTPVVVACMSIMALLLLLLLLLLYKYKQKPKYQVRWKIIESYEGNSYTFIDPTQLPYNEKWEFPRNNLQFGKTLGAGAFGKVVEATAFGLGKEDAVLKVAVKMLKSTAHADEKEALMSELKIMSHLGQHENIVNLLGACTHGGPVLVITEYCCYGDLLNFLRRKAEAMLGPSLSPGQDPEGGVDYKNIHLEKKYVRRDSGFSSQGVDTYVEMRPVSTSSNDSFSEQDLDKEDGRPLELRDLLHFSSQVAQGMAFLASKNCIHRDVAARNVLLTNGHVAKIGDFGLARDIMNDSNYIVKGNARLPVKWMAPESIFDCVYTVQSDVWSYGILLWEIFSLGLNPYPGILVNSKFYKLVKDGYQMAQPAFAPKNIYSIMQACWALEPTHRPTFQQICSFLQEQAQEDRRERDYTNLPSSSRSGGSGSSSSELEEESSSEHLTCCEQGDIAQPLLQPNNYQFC
- Test protocol: HEK293 CSF1R phosphorylation MSD assay
- Assay type: cell-based
- Design: expressed in transfected cells; host or cells: HEK293
- Experimental setup: HEK293 cells, M-CSF stimulated CSF1R phosphorylation, MSD; read-out: HEK293 pCSF1R M-CSF MSD:IC50
- Method: The compounds disclosed herein were tested in a CSF1R phosphorylation assay to determine their cellular potency against CSF1R. A HEK293 cell line expressing CSF1R fused to FK506 binding protein (FKBP) as a molecular tag was generated. Inhibition of CSF1R kinase activity will prevent ligand-stimulated autophosphorylation of the CSF1R-FKBP in intact cells. […]
pIC50: −log10 of the molar value. Where a name gives a salt, the structure may show the parent alone.
Measurement type: pIC50

Molecule	Measurement type	Result
C=Cc1cc(F)c2c(c1)ncn2Cc1ccc2nc(N[C@@H]3CCCC[C@H]3O)sc2c1 [Example 207]	pIC50	6.70 to 7.30
Cc1ccc2c(c1)ncn2Cc1ccc2nc(N[C@@H]3CCCC[C@H]3O)sc2c1 [Example 127]	pIC50	6.70 to 7.30
Cc1cc2ncn(Cc3ccc4nc(N[C@@H]5CCCC[C@H]5O)sc4c3)c2cc1C [Example 119]	pIC50	6.70 to 7.30
O[C@@H]1CCCC[C@H]1Nc1nc2ccc(Cc3cnc4ccc(Br)nn34)cc2s1 [Example 177]	pIC50	≥ 7.30
O[C@@H]1CCCC[C@H]1Nc1nc2ccc(Cn3cnc4cc(-n5cncn5)ccc43)cc2s1 [Example 161]	pIC50	≥ 7.30
CN(C)CC(=O)c1cnc2c(c1)ncn2Cc1ccc2nc(N[C@@H]3CCCC[C@H]3O)sc2c1 [Example 116, acetate salt]	pIC50	6.70 to 7.30
CC(O)c1cnc2c(c1)ncn2Cc1ccc2nc(N[C@@H]3CCCC[C@H]3O)sc2c1 (stereo partly shown) [Example 115]	pIC50	6.70 to 7.30
O[C@@H]1CCCC[C@H]1Nc1nc2ccc(Cc3cnc4cccnn34)cc2o1 [Example 142]	pIC50	≥ 7.30
O[C@@H]1CCCC[C@H]1Nc1nc2ccc(Cc3cnc4cc(-n5nccn5)ccn34)cc2s1 [Example 215]	pIC50	6.70 to 7.30
CC(O)c1ccn2c(Cc3ccc4nc(N[C@@H]5CCCC[C@H]5O)sc4c3)cnc2c1 (stereo partly shown) [Example 201]	pIC50	6.30 to 6.70
CS(=O)(=O)c1ccc2ncn(Cc3ccc4nc(N[C@@H]5CCCC[C@H]5O)sc4c3)c2n1 [Example 106]	pIC50	< 6.30
C=CCOc1ccn2c(Cc3ccc4nc(N[C@@H]5CCCC[C@H]5O)sc4c3)cnc2c1 [Example 217]	pIC50	6.70 to 7.30
O[C@@H]1[C@H](O)CCC[C@H]1Nc1nc2ccc(Cn3cnc4cc(N5CCOCC5)ccc43)cc2s1 [Example 235]	pIC50	6.70 to 7.30
O[C@@H]1CCCC[C@H]1Nc1nc2ccc(Cn3cnc4cc(C5=CCCCC5)ccc43)cc2s1 [Example 184]	pIC50	6.30 to 6.70
O[C@@H]1CCCC[C@H]1Nc1nc2ccc(Cc3cnc4cc(-n5cncn5)ccn34)cc2s1 [Example 169]	pIC50	6.70 to 7.30
O[C@@H]1CCCC[C@H]1Nc1nc2ccc(Cn3cnc4cc(I)cnc43)cc2s1 [Example 146]	pIC50	≥ 7.30

* * *

- Assayed target: kinase panel containing either 386 or 392 distinct kinases
- Test protocol: Kinase selectivity score S10 from competition binding panel
- Experimental setup: 10 μM, panel of 386 or 392 distinct kinases

Mol	Kinase specificity S(10)
O[C@@H]1CCCC[C@H]1Nc1nc2ccc(Cc3cnc4cc(N5CCOCC5)ccn34)cc2s1	A (A≤0.01)
O[C@@H]1CCCC[C@H]1Nc1nc2c(Cl)cc(Cc3cnc4ccc(N5CCOCC5)nn34)cc2s1	A (A≤0.01)
O[C@@H]1CCCC[C@H]1Nc1nc2ncc(Cn3cnc4cccnc43)cc2s1	A (A≤0.01)
Cn1nnc(-c2ccc3c(c2)ncn3Cc2ccc3nc(N[C@@H]4CCC[C@@H](O)[C@H]4O)sc3c2)n1	A (A≤0.01)
O[C@H]1CCCC[C@H]1Nc1nc2ccc(Cn3cnc4cc(F)cnc43)cc2s1	A (A≤0.01)
O[C@@H]1CCCC[C@H]1Nc1nc2c(Br)cc(Cn3cnc4cccnc43)cc2s1	A (A≤0.01)
Cn1cc(-c2ccc3c(c2)ncn3Cc2ccc3nc(N[C@@H]4CCCC[C@H]4O)sc3c2)c(C(F)(F)F)n1	B (0.01<B≤0.02)
CS[C@@H]1CCCC[C@H]1Nc1nc2ccc(Cn3cnc4cc(F)cnc43)cc2s1	B (0.01<B≤0.02)

* * *

- Assayed target: kinase panel containing either 386 or 392 distinct kinases
- Test protocol: Kinase selectivity score S10 from competition binding panel
- Experimental setup: compounds at 10 μM; 386 or 392 distinct kinases

Compound	Assayed target	Kinase specificity S(10)
OC[C@H](Nc1nc2ccc(Cn3cnc4cccnc43)cc2s1)C1CCCCC1	kinase panel containing either 386 or 392 distinct kinases	C (C>0.02)
COc1cc2ncn(Cc3ccc4nc(N[C@@H]5CCCC[C@H]5O)oc4c3)c2cc1OC	kinase panel containing either 386 or 392 distinct kinases	C (C>0.02)
N#Cc1cnc2c(c1)ncn2Cc1ccc2nc(N[C@@H]3CCCC[C@H]3O)sc2c1	kinase panel containing either 386 or 392 distinct kinases	B (0.01<B≤0.02)
O[C@@H]1CCCC[C@H]1Nc1nc2ccc(Cc3cnc4ccccn34)cc2s1	kinase panel containing either 386 or 392 distinct kinases	A (A≤0.01)
Cn1cc(-c2cn(Cc3ccc4nc(N[C@@H]5CCCC[C@H]5O)sc4c3)cn2)cn1	kinase panel containing either 386 or 392 distinct kinases	A (A≤0.01)
O[C@@H]1CCCC[C@H]1Nc1nc2ccc(Cn3cnc4cc(C5CC5)cnc43)cc2s1	kinase panel containing either 386 or 392 distinct kinases	B (0.01<B≤0.02)
CC(=O)Nc1cn(Cc2ccc3nc(N[C@@H]4CCCC[C@H]4O)sc3c2)cn1	kinase panel containing either 386 or 392 distinct kinases	B (0.01<B≤0.02)
COc1cc2ncn(Cc3ccc4nc(N[C@@H]5CCCCC[C@H]5O)sc4c3)c2cc1OC (racemic)	kinase panel containing either 386 or 392 distinct kinases	C (C>0.02)

* * *

Measured IC50 by item
- Assayed target: UniProtKB P07333
- Test protocol: HEK293 CSF1R phosphorylation MSD assay
- Type: cell-based
- Design: expressed in transfected cells; host or cells: HEK293
- Experimental setup: 2 h compound, human M-CSF 50 ng/mL for 5 min; read-out: HEK293 pCSF1R M-CSF MSD:IC50

Compound	IC50
COc1cc2ncn(Cc3ccc4nc(N[C@H]5CCc6ccccc65)sc4c3)c2cc1OC [Example 11]	200 to 500 nM
O[C@@H]1CCCC[C@H]1Nc1nc2ccc(Cn3cnc4ccc(Br)nc43)cc2s1 [Example 78]	≤ 50 nM
CNC(=O)c1cnc2c(c1)ncn2Cc1ccc2nc(N[C@@H]3CCCC[C@H]3O)sc2c1 [Example 89]	50 to 200 nM
N#Cc1cnc2c(c1)ncn2Cc1ccc2nc(N[C@@H]3CCCC[C@H]3O)sc2c1 [Example 43]	50 to 200 nM
COc1cc2ncn(Cc3ccc4nc(NC5CCCCC5)sc4c3)c2cc1OC [Example 18]	≤ 50 nM
COc1cc2ncn(Cc3ccc4nc(N[C@@H]5c6ccccc6C[C@@H]5O)sc4c3)c2cc1OC [Example 10]	200 to 500 nM
N#Cc1ccc2ncn(Cc3ccc4nc(N[C@@H]5CCCC[C@H]5O)sc4c3)c2n1 [Example 87]	≤ 50 nM
O[C@@H]1CCCC[C@H]1Nc1nc2ccc(Cn3cnc4cncnc43)cc2s1 [Example 48]	50 to 200 nM
CC(=O)c1ccc2ncn(Cc3ccc4nc(N[C@@H]5CCCC[C@H]5O)sc4c3)c2n1 [Example 88]	50 to 200 nM
COc1cc2ncn(Cc3ccc4nc(NC5CCOCC5)sc4c3)c2cc1OC [Example 15]	200 to 500 nM
COc1cc2ncn(Cc3ccc4nc(N[C@@H]5CCCCC[C@H]5O)sc4c3)c2cc1OC (racemic) [Example 50]	≤ 50 nM
COc1cc2ncn(Cc3ccc4nc(NC5CCN(C(C)=O)CC5)sc4c3)c2cc1OC [Example 24, acetic acid]	> 500 nM
O[C@@H]1CCCC[C@H]1Nc1nc2ccc(Cc3c[nH]c4ncccc34)cc2s1 [Example 17]	200 to 500 nM
NCc1cnc2c(c1)ncn2Cc1ccc2nc(N[C@@H]3CCCC[C@H]3O)sc2c1 [Example 91]	> 500 nM
O[C@@H]1CCCC[C@H]1Nc1nc2ccc(Cn3cnc4cc(Br)cnc43)cc2s1 [Example 29]	≤ 50 nM
COc1cc2ncn(Cc3ccc4nc(NCc5ccccn5)sc4c3)c2cc1OC [Example 9]	200 to 500 nM
COc1cc2c(cc1Br)ncn2Cc1ccc2nc(N[C@@H]3c4ccccc4C[C@H]3O)sc2c1 [Example 49]	200 to 500 nM
